molecular target: BTK (Homo sapiens (Human)); test: In vitro BTK kinase assay: BTK-POLYGAT-LS ASSAY
Sequence (Q06187 whole entry): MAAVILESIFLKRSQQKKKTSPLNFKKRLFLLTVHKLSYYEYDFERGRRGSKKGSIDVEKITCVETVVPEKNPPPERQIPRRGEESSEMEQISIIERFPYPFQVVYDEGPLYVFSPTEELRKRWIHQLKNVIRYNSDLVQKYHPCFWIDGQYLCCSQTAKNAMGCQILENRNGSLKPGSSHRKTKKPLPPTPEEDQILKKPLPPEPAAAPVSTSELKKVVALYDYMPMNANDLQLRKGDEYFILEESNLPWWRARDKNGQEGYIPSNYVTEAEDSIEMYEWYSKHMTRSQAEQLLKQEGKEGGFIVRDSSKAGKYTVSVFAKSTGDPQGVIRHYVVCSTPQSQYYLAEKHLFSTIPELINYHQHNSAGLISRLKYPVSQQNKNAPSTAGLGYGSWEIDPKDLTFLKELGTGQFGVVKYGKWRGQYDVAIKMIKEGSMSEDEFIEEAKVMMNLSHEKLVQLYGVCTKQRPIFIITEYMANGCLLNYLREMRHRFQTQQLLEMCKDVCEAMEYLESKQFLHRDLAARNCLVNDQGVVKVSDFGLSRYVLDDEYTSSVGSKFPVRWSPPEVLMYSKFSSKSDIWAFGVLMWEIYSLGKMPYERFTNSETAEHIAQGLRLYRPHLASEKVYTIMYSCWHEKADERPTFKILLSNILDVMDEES
# IC50 listing for each entry below

{"molecule": "CN(C)[C@@H]1CCN(c2ccccc2NC(=O)Nc2cccc(C3CCCN(c4ncnc5[nH]ccc45)C3)c2)C1 (some centres unmarked) [compound 210]", "test_system": "BTK (Homo sapiens (Human))", "IC50": "1000 to 10000 nM"}
{"molecule": "C[C@@H](NC(=O)Nc1cccc(C2CCCN(c3ncnc4[nH]ccc34)C2)c1)C1CCCCC1 (some centres unmarked) [Cmpd 44]", "test_system": "BTK (Homo sapiens (Human))", "IC50": "1000 to 10000 nM"}
{"molecule": "O=C(Nc1ccc(Cl)cc1)Nc1cccc(C2CCCN(c3ncnc4[nH]ccc34)C2)c1 (centres unmarked) [Cmpd 27]", "test_system": "BTK (Homo sapiens (Human))", "IC50": "1000 to 10000 nM"}
{"molecule": "O=C(Nc1cccc(C2CCCN(c3ncnc4[nH]ccc34)C2)c1)Nc1ccccc1N1CCCC1=O (centres unmarked) [compound 170]", "test_system": "BTK (Homo sapiens (Human))", "IC50": "100 to 999 nM"}
{"molecule": "O=C(Nc1cccc(C2CCN(c3ncnc4[nH]ccc34)C2)c1)Nc1ccccc1N1CCCC1 (centres unmarked) [compound 171]", "test_system": "BTK (Homo sapiens (Human))", "IC50": "100 to 999 nM"}
{"molecule": "O=C(Nc1ccccc1)Nc1cccc(C2CCN(c3ncnc4[nH]ccc34)C2)c1 (centres unmarked) [Cmpd 28]", "test_system": "BTK (Homo sapiens (Human))", "IC50": "1000 to 10000 nM"}
{"molecule": "O=C(Nc1cccc(C2CCCN(c3ncnc4[nH]ccc34)C2)c1)Nc1ccccc1C(F)(F)F (centres unmarked) [compound 173]", "test_system": "BTK (Homo sapiens (Human))", "IC50": "100 to 999 nM"}
{"molecule": "C[C@H]1CCCN1c1ccccc1NC(=O)Nc1cccc(C2CCCN(c3ncnc4[nH]ccc34)C2)c1 (some centres unmarked) [compound 188]", "test_system": "BTK (Homo sapiens (Human))", "IC50": "1000 to 10000 nM"}
{"molecule": "CS(=O)(=O)c1ccccc1NC(=O)Nc1cccc(C2CCCN(c3ncnc4[nH]ccc34)C2)c1 (centres unmarked) [Cmpd 64]", "test_system": "BTK (Homo sapiens (Human))", "IC50": "1000 to 10000 nM"}
{"molecule": "N#C/N=C(\\Nc1cccc(C2CCCN(c3ncnc4[nH]ccc34)C2)c1)NC1CCCCC1 (centres unmarked) [Cmpd 75]", "test_system": "BTK (Homo sapiens (Human))", "IC50": "1000 to 10000 nM"}
{"molecule": "O=C(Nc1cccc(C2CCCN(c3ncnc4[nH]ccc34)C2)c1)c1ccccc1 (centres unmarked) [Cmpd 2]", "test_system": "BTK (Homo sapiens (Human))", "IC50": "1000 to 10000 nM"}
{"molecule": "O=C(Nc1cccnc1)Nc1cccc(C2CCCN(c3ncnc4[nH]ccc34)C2)c1 (centres unmarked) [Cmpd 30]", "test_system": "BTK (Homo sapiens (Human))", "IC50": "1000 to 10000 nM"}
{"molecule": "CCC(CC)CNC(=O)Nc1cccc(C2CCCN(c3ncnc4[nH]ccc34)C2)c1 (centres unmarked) [compound 180]", "test_system": "BTK (Homo sapiens (Human))", "IC50": "100 to 999 nM"}
{"molecule": "O=C(Nc1cccc(C2CCCN(c3ncnc4[nH]ccc34)C2)c1)N[C@H](CO)C1CCCCC1 (some centres unmarked) [compound 203]", "test_system": "BTK (Homo sapiens (Human))", "IC50": "1000 to 10000 nM"}
{"molecule": "N#C/N=C(\\Nc1cccc(C2CCCN(c3ncnc4[nH]ccc34)C2)c1)Nc1c(Cl)cccc1Cl (centres unmarked) [compound 269]", "test_system": "BTK (Homo sapiens (Human))", "IC50": "100 to 999 nM"}
{"molecule": "CC(C)(C)c1ccccc1NC(=O)Nc1cccc(C2CCCN(c3ncnc4[nH]ccc34)C2)c1 (centres unmarked) [compound 167]", "test_system": "BTK (Homo sapiens (Human))", "IC50": "100 to 999 nM"}
{"molecule": "Nc1ncnc(N2CCCC(c3nc(NC(=O)Nc4c(F)cc(F)cc4N4CCCC4)cs3)C2)c1Cl (centres unmarked) [compound 114]", "test_system": "BTK (Homo sapiens (Human))", "IC50": "100 to 999 nM"}
{"molecule": "O=C(Nc1cccc(C2CN(c3ncnc4[nH]ccc34)CCC2CO)c1)Nc1ccccc1N1CCCC1 (centres unmarked) [compound 163]", "test_system": "BTK (Homo sapiens (Human))", "IC50": "100 to 999 nM"}
{"molecule": "O=C(NC[C@H]1CCCC[C@H]1O)Nc1cccc(C2CCCN(c3ncnc4[nH]ccc34)C2)c1 (some centres unmarked) [compound 218]", "test_system": "BTK (Homo sapiens (Human))", "IC50": "1000 to 10000 nM"}
{"molecule": "CC(C)c1ccccc1NC(=O)Nc1cccc(C2CN(c3ncnc4[nH]ccc34)CCN2CCO)c1 (centres unmarked) [compound 133]", "test_system": "BTK (Homo sapiens (Human))", "IC50": "100 to 999 nM"}
{"molecule": "Cc1cc(NC(=O)Nc2cccc(C3CCCN(c4ncnc5[nH]ccc45)C3)c2)on1 (centres unmarked) [Cmpd 66]", "test_system": "BTK (Homo sapiens (Human))", "IC50": "1000 to 10000 nM"}
{"molecule": "Nc1ncnc(N2CCCC(c3cccc(NC(=O)Nc4ccccc4)c3)C2)c1CCC(=O)O (centres unmarked) [compound 206]", "test_system": "BTK (Homo sapiens (Human))", "IC50": "1000 to 10000 nM"}
{"molecule": "Cc1ccnc(C)c1NC(=O)Nc1cccc(C2CCCN(c3ncnc4[nH]ccc34)C2)c1 (centres unmarked) [compound 200]", "test_system": "BTK (Homo sapiens (Human))", "IC50": "1000 to 10000 nM"}
{"molecule": "O=C(Nc1cccc(C2CCCN(c3ncnc4[nH]ccc34)C2)c1)Nc1ccccc1C1CCCC1 (centres unmarked) [Cmpd 48]", "test_system": "BTK (Homo sapiens (Human))", "IC50": "100 to 999 nM"}
{"molecule": "O=C(Nc1cccc(C2CCCN(c3ncnc4[nH]ccc34)C2)c1)Nc1cccnc1Cl (centres unmarked) [compound 202]", "test_system": "BTK (Homo sapiens (Human))", "IC50": "1000 to 10000 nM"}
{"molecule": "Nc1ncnc(N2CCC[C@@H](N3CCCC(Nc4cc(F)cc(Cl)c4)C3=O)C2)c1Cl (some centres unmarked) [compound 289]", "test_system": "BTK (Homo sapiens (Human))", "IC50": "100 to 999 nM"}
{"molecule": "CC(C)(O)c1ccccc1NC(=O)Nc1cccc(C2CCCN(c3ncnc4[nH]ccc34)C2)c1 (centres unmarked) [compound 195]", "test_system": "BTK (Homo sapiens (Human))", "IC50": "1000 to 10000 nM"}
{"molecule": "CC(C)c1cc(=O)nc(Nc2cccc(C3CCCN(c4ncnc5[nH]ccc45)C3)c2)[nH]1 (centres unmarked) [compound 121]", "test_system": "BTK (Homo sapiens (Human))", "IC50": "1000 to 10000 nM"}
{"molecule": "O=C(Nc1ccccc1)Nc1cccc(C2CCCN(c3ncnc4[nH]ncc34)C2)c1 (centres unmarked) [Cmpd 91]", "test_system": "BTK (Homo sapiens (Human))", "IC50": "1000 to 10000 nM"}
{"molecule": "O=C1[C@H](Nc2ccccc2)CCN1[C@@H]1CCCN(c2ncnc3[nH]ccc23)C1 [compound 273]", "test_system": "BTK (Homo sapiens (Human))", "IC50": "100 to 999 nM"}
{"molecule": "COc1ncccc1NC(=O)Nc1cccc(C2CCCN(c3ncnc4[nH]ccc34)C2)c1 (centres unmarked) [compound 215]", "test_system": "BTK (Homo sapiens (Human))", "IC50": "1000 to 10000 nM"}
{"molecule": "O=C(Nc1cccc(C2CCCN(c3ncnc4[nH]ccc34)C2)c1)c1ccc(Cl)cc1 (centres unmarked) [Cmpd 3]", "test_system": "BTK (Homo sapiens (Human))", "IC50": "1000 to 10000 nM"}
